- System: HepaRG
- method.summary: LDH release cytotoxicity, % of total lysis control; higher = more cytotoxic
- protocol.conditions: 0.3162278 µM; 48 h
parameter: LDH release cytotoxicity (%)
# unit: % | format: bare number

What the record says about O=CCCCC=O : LDH release cytotoxicity is -1.72

What the record says about OCC(CO)(CBr)CBr [Pentaerythritol dibromide] : LDH release cytotoxicity is -2.05

What the record says about CC1(C)CON(Cc2ccccc2Cl)C1=O : LDH release cytotoxicity is -6.22

What the record says about CCOP(=S)(OCC)SCCSCC : LDH release cytotoxicity is -1.03

What the record says about CC=Cc1ccc(O)c(OC)c1 : LDH release cytotoxicity is -2.55

What the record says about CCCCCCCCN(C)CCCCCCCC : LDH release cytotoxicity is -1.43

What the record says about CC(C)(C)c1ccc(CSc2cnn(C(C)(C)C)c(=O)c2Cl)cc1 : LDH release cytotoxicity is -1.47

What the record says about O=C(Oc1ccccc1)c1cccc(C(=O)Oc2ccccc2)c1 [Diphenyl isophthalate] : LDH release cytotoxicity is -0.0836

What the record says about CCCCOC(=O)c1ccccc1C(=O)OCCCC [Dibutyl phthalate] : LDH release cytotoxicity is 3.28

What the record says about Oc1cccc2cccnc12 [8-Hydroxyquinoline] : LDH release cytotoxicity is -1.16

----------
- Test system: HepaRG
- method.summary: LDH release cytotoxicity, % of total lysis control; higher = more cytotoxic
- protocol.conditions: 3.16228 µM; 48 h
Where a name gives a salt, the structure may show the parent alone.
parameter: LDH release cytotoxicity (%)
# unit: % | format: bare number

What the record says about Cc1nn(-c2cc(NS(C)(=O)=O)c(Cl)cc2Cl)c(=O)n1C(F)F : LDH release cytotoxicity is -0.982

What the record says about CCCCCOC(=O)c1ccccc1C(=O)OCCCCC [Dipentyl phthalate] : LDH release cytotoxicity is 10.4

What the record says about CC(C)(C)c1csc(-c2cc3cc(OCc4ccccc4CC(=O)O)ccc3o2)n1 : LDH release cytotoxicity is -2.37

What the record says about Nc1ccn(C2OC(CO)C(O)C2O)c(=O)n1 (stereo not drawn) [Cytarabine hydrochloride] : LDH release cytotoxicity is -0.827

What the record says about CS(=O)(=O)OCCCCOS(C)(=O)=O : LDH release cytotoxicity is -1.19

What the record says about O=C1CCCCC1 : LDH release cytotoxicity is -1.46

What the record says about CS(=O)(=O)c1cc(C(F)(F)F)ccc1C(=O)c1cnoc1C1CC1 : LDH release cytotoxicity is -0.928

What the record says about CCc1ccc(CCOc2ccc(CC3SC(=O)NC3=O)cc2)nc1 (stereo not drawn) [Pioglitazone hydrochloride] : LDH release cytotoxicity is -2.26

What the record says about Cc1cn(C2C=CC(CO)O2)c(=O)[nH]c1=O (stereo not drawn) : LDH release cytotoxicity is -0.127

What the record says about Nc1c(Cl)c(F)nc(OCC(=O)O)c1Cl : LDH release cytotoxicity is -1.07

What the record says about c1ccc(Nc2ccccc2)cc1 : LDH release cytotoxicity is -1.13

What the record says about COCC(C)N(C(=O)CCl)c1c(C)csc1C (stereo not drawn) : LDH release cytotoxicity is -2.64

What the record says about Nc1ccc(S(=O)(=O)c2ccc(N)cc2)cc1 : LDH release cytotoxicity is 0.1

----------
- Tested on: HepaRG
- method.summary: LDH release cytotoxicity, % of total lysis control; higher = more cytotoxic
- protocol.conditions: 0.1 µM; 48 h
parameter: LDH release cytotoxicity (%)
# unit: % | format: bare number

What the record says about OC(c1ccc(Cl)cc1)(c1ccc(Cl)cc1)C(Cl)(Cl)Cl [Dicofol] : LDH release cytotoxicity is -4.19

What the record says about Nc1ccc(Cl)cc1N [4-Chloro-1,2-diaminobenzene] : LDH release cytotoxicity is -0.99

What the record says about COCCOCC(CC1(C(=O)NC2CCC(C(=O)O)CC2)CCCC1)C(=O)Oc1ccc2c(c1)CCC2 (configuration not stated) [Candoxatril] : LDH release cytotoxicity is -1.91

What the record says about O=P(OCCCl)(OCCCl)OCCCl [Tris(2-chloroethyl) phosphate] : LDH release cytotoxicity is -0.629

What the record says about Nc1cc(Cl)cc(C(=O)O)c1Cl [Chloramben] : LDH release cytotoxicity is -1.57

What the record says about CCNc1cccc(C)c1 [N-Ethyl-3-methylaniline] : LDH release cytotoxicity is -0.734

What the record says about CCCCOCCOCCO [2-(2-Butoxyethoxy)ethanol] : LDH release cytotoxicity is -1.94

What the record says about CCOC(=O)NCCOc1ccc(Oc2ccccc2)cc1 [Fenoxycarb] : LDH release cytotoxicity is -2.15

What the record says about CC(C)(c1ccccc1)c1ccc(O)cc1 [4-Cumylphenol] : LDH release cytotoxicity is 0.26

What the record says about CCCCC(CC)COC(=O)CCCCC(=O)OCc1ccccc1 (configuration not stated) [Benzyloctyl adipate] : LDH release cytotoxicity is -0.43

What the record says about O=C1OC(c2ccc(O)cc2)(c2ccc(O)cc2)c2ccccc21 [Phenolphthalein] : LDH release cytotoxicity is -1.59

What the record says about CCOC(=O)C(C)OC(=O)c1cc(Oc2ccc(C(F)(F)F)cc2Cl)ccc1[N+](=O)[O-] (configuration not stated) [Lactofen] : LDH release cytotoxicity is -0.64
